The origin of these recorded values is patent US20030068675.

Molecular target: T1, ZFP SBS#527 (synthetic, UniProt P08047)
T1 chain: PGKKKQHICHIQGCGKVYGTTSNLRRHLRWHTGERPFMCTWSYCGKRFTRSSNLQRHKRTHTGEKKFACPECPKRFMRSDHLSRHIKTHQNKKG
Test: EMSA
Conditions: tags: MBP fusion
OUTCOME_MEASURE: Kd (nM)
# unit: nM | format: bare number

Return reported Kd; argument: GGGGAGGATC (dsDNA) DNA 1: GGGGAGGATC DNA 2: GATCCTCCCC
2
